test system: Ruminococcus gnavus DSM 108212; assay: fold change of 2-Phenylethylamine concentration vs plate DMSO controls (fold change (ratio)); higher = more amine produced, active = hit call of the paper (significant change in both replicates, either direction); settings: incubation time: 27 h, anaerobic, 37 °C
Counter-ions that a name gives are not always drawn.
Respond with label 1 for fold change of 2-Phenylethylamine concentration values of 1 and above, label 0 for values below.

Input line: Exam item: decide whether the reported fold change of 2-Phenylethylamine concentration for CO[C@@]12[C@H](COC(N)=O)C3=C(C(=O)C(C)=C(N)C3=O)N1C[C@@H]1N[C@@H]12 [Mitomycin C] (20 µM) is at least 1.
Output line: label 0

Input line: Check CC12CC3CC(C)(C1)CC(N)(C3)C2 [Memantine hydrochloride] (20 µM) too.
Output line: label 1

Input line: Next molecule up: CCCc1nc(C)c2c(=O)nc(-c3cc(S(=O)(=O)N4CCN(CC)CC4)ccc3OCC)[nH]n12 [Vardenafil] (20 µM)
Output line: label 1

Input line: Also check Cc1ccccc1N1C(=O)c2cc(S(N)(=O)=O)c(Cl)cc2NC1C (configuration not stated) [Metolazone] (20 µM)
Output line: label 1

Input line: Also NC(=O)OCC(COC(N)=O)c1ccccc1 [Felbamate] (20 µM) , if possible.
Output line: label 1

Input line: And for C[C@@H](O)[C@H]1C(=O)N2C(C(=O)O)=C(S[C@@H]3CN[C@H](C(=O)N(C)C)C3)[C@H](C)[C@H]12 [Meropenem] (20 µM) ?
Output line: label 0

----------
test system: Escherichia coli IAI1; experiment: fold change of Putrescine concentration vs plate DMSO controls (fold change (ratio)); higher = more amine produced, active = hit call of the paper (significant change in both replicates, either direction); conditions: incubation time: 27 h, anaerobic, 37 °C;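 for the amine columns active = adjusted P below 0.05 in both replicates with a change the same way and a mean fold change under 0.8 or over 1.25; inactive = the rest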
Structures can show the parent of a compound that is named as a salt.
Outcomes you can answer with include only these: active, inactive

Input line: Assay result, entry CC(=O)c1ccc(S(=O)(=O)NC(=O)NC2CCCCC2)cc1 [Acetohexamide] (20 µM) — outcome?
Output line: inactive

Input line: Similarly, CN(C)C/C=C(/c1ccc(Br)cc1)c1cccnc1 [Zimelidine dihydrochloride monohydrate] (20 µM) ?
Output line: inactive

Input line: // query: COc1ccc(C(Cl)=C(c2ccc(OC)cc2)c2ccc(OC)cc2)cc1 [Chlorotrianisene] (20 µM)
Output line: inactive

Input line: Now consider O=C(N/N=C/c1ccc([N+](=O)[O-])o1)c1ccc(O)cc1 [Nifuroxazide] (20 µM) .
Output line: active

Input line: Next: COC(=O)C1=C(C)NC(C)=C(C(=O)OCCN2CCN(C(c3ccccc3)c3ccccc3)CC2)C1c1cccc([N+](=O)[O-])c1 (stereo unspecified) [Manidipine Dihydrochloride] (20 µM)
Output line: inactive

Input line: Another compound to check: CNS(=O)(=O)Cc1ccc2[nH]cc(CCN(C)C)c2c1 [Sumatriptan succinate] (20 µM)
Output line: inactive

Input line: Next compound up: CC(N/C(=N\C#N)Nc1ccncc1)C(C)(C)C (stereo unspecified) [Pinacidil monohydrate] (20 µM)
Output line: inactive

Input line: Now consider N[C@@H](C(=O)N[C@@H]1C(=O)N2C(C(=O)O)=C(Cl)CC[C@H]12)c1ccccc1 [Loracarbef] (20 µM) and answer again.
Output line: inactive

Input line: Again, but for CCCCc1cc2ccccc2c(OCCN(C)C)n1 [Dimethisoquin hydrochloride] (20 µM)
Output line: inactive

Input line: Also CC1=C(CC(=O)O)c2cc(F)ccc2/C1=C\c1ccc([S+](C)[O-])cc1 (stereo unspecified) [Sulindac] (20 µM) ?
Output line: inactive

Input line: // repeat for CC(C)NC[C@@H](O)COc1ccc(CC(N)=O)cc1 [(R,+) Atenolol] (20 µM) and report
Output line: inactive

Input line: Again, but for Clc1ccc(CCC(Cn2ccnc2)Sc2c(Cl)cccc2Cl)cc1 (stereo unspecified) [Butoconazole nitrate] (20 µM)
Output line: inactive

Input line: Likewise for O=C(Cn1ccnc1[N+](=O)[O-])NCCO [Etanidazole] (20 µM) ?
Output line: inactive

Input line: Similarly, c1cnc(N2CCN(Cc3ccc4c(c3)OCO4)CC2)nc1 [Piribedil] (20 µM) ?
Output line: inactive

Input line: Try the compound CC(=O)O[C@H]1C[C@@H]2CC[C@@H]3[C@H](CC[C@@]4(C)[C@H]3C[C@H]([N+]3(C)CCCCC3)[C@@H]4OC(C)=O)[C@@]2(C)C[C@@H]1N1CCCCC1 [Vecuronium bromide] (20 µM)
Output line: inactive

Input line: Then O=C(NCCN1CCOCC1)c1ccc(Cl)cc1 [Moclobemide] (20 µM) ?
Output line: inactive

Input line: Next compound up: CN1CCN2c3ncccc3Cc3ccccc3C2C1 (stereo unspecified) [Mirtazapine] (20 µM)
Output line: inactive

Input line: Moving on to CC(C)(Sc1cc(C(C)(C)C)c(O)c(C(C)(C)C)c1)Sc1cc(C(C)(C)C)c(O)c(C(C)(C)C)c1 [Probucol] (20 µM)
Output line: inactive

Input line: // repeat for Cn1c(NCCN(CCO)CCCc2ccc([N+](=O)[O-])cc2)cc(=O)n(C)c1=O [Nifekalant] (20 µM) and report
Output line: inactive

Input line: CC(=O)[C@@]1(O)CC[C@H]2[C@@H]3C[C@H](C)C4=CC(=O)C=C[C@]4(C)[C@@]3(F)[C@@H](O)C[C@@]21C [Fluorometholone] (20 µM) ?
Output line: inactive

Input line: Follow-up entry: Cn1cc(C(=O)[C@@H]2CCc3[nH]cnc3C2)c2ccccc21 [Ramosetron hydrochloride] (20 µM)
Output line: inactive

Input line: How about COc1ccc(-c2noc(CC(=O)O)c2-c2ccc(OC)cc2)cc1 [Mofezolac] (20 µM) ?
Output line: inactive

Input line: What would you report for Nc1ccc(O)c(C(=O)O)c1 [Mesalamine] (20 µM) ?
Output line: inactive

Input line: Then what about the compound Clc1ccccc1C(c1ccccc1)(c1ccccc1)n1ccnc1 [Clotrimazole] (20 µM) ?
Output line: inactive

Input line: Same again, this time with COc1ccc(CCN(C)CCCC(C#N)(c2ccc(OC)c(OC)c2)C(C)C)cc1OC (stereo unspecified) [Verapamil hydrochloride] (20 µM)
Output line: inactive

Input line: Now give it for O=C(Cn1cnnn1)N[C@@H]1C(=O)N2C(C(=O)O)=C(CSc3nncs3)CS[C@H]12 [Ceftezole] (20 µM) too.
Output line: inactive

Input line: Now consider COc1cccc(CCc2ccccc2OCC(CN(C)C)OC(=O)CCC(=O)O)c1 (stereo unspecified) [Sarpogrelate hydrochloride] (20 µM) .
Output line: inactive

Input line: Subsequent entry: CC(C)=CCC1C(=O)N(c2ccccc2)N(c2ccccc2)C1=O [Feprazone] (20 µM)
Output line: inactive

Input line: Another compound to check: CN(C)CCC=C1c2ccccc2CCc2ccccc21 [Amitryptiline hydrochloride] (20 µM)
Output line: inactive

Input line: Let us now turn to CCC1=C(C)CN(C(=O)NCCc2ccc(S(=O)(=O)NC(=O)N[C@H]3CC[C@H](C)CC3)cc2)C1=O [Glimepiride] (20 µM)
Output line: inactive

Input line: Now give it for CN1CCC(=C2c3ccccc3CCc3cccnc32)CC1 [Azatadine maleate] (20 µM) too.
Output line: inactive
